study-system: T1, soluble human CD16A (sCD16A) (human, UniProt P08637 17-203)
T1 construct: CD16A truncated just prior to the transmembrane region, expressed in HEK-293; The last seven residues come from vector pCDNA3.1; also called soluble form of human CD16A
T1 sequence (P08637 other isoform, or with tags, fused parts or gaps limits assumed): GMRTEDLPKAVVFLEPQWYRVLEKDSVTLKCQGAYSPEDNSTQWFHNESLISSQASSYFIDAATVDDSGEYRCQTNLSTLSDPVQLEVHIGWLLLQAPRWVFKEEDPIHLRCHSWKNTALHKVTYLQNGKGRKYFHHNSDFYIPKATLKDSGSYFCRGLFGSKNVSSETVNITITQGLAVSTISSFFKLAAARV
protocol-summary: ELISA, captured sCD16A
result-type: binding result

// lookup binding result for hu3G8VH-8/hu3G8VL-1 (antibody, VH fused to human Cγ1 constant region) VH: QVTLRESGPALVKPTQTLTLTCTFSGFSLSTSGMGVGWIRQPPGKALEWLAHIWWDDDKRYNPALKSRLTISKDTSKNQVVLTMTNMDPVDTATYYCARINPAYFAYWGQGTLVTVSS light: DIVMTQSPDSLAVSLGERATINCKASQSVDFDGDSFMNWYQQKPGQPPKLLIYTTSNLESGVPDRFSGSGSGTDFTLTISSLQAEDVAVYYCQQSNEDPYTFGQGTKLEIKRTVAAPSVFIFPPSDEQLKSGTASVVCLLNNFYPREAKVQWKVDNALQSGNSQESVTEQDSKDSTYSLSSTLTLSKADYEKHKVYACEVTHQGLSSPVTKSFNRGEC binds

# repeat for hu3G8VH-43/hu3G8VL-1 (antibody, VH fused to human Cγ1 constant region) VH: QITLKESGPTLVKPTQTLTLTCTFSGFSLSTSGVGVGWIRQPPGKALEWLAHIWWDDDKRYSPSLKSRLTITKDTSKNQVVLTMTNMDPVDTATYYCARINPAYFAYWGQGTLVTVSS light: DIVMTQSPDSLAVSLGERATINCKASQSVDFDGDSFMNWYQQKPGQPPKLLIYTTSNLESGVPDRFSGSGSGTDFTLTISSLQAEDVAVYYCQQSNEDPYTFGQGTKLEIKRTVAAPSVFIFPPSDEQLKSGTASVVCLLNNFYPREAKVQWKVDNALQSGNSQESVTEQDSKDSTYSLSSTLTLSKADYEKHKVYACEVTHQGLSSPVTKSFNRGEC binds
